# Tested Target: Integrin alpha-IIb/beta-3 (Homo sapiens, UniProt P08514+P05106)
# Sequence (P05106 27-788 limits assumed): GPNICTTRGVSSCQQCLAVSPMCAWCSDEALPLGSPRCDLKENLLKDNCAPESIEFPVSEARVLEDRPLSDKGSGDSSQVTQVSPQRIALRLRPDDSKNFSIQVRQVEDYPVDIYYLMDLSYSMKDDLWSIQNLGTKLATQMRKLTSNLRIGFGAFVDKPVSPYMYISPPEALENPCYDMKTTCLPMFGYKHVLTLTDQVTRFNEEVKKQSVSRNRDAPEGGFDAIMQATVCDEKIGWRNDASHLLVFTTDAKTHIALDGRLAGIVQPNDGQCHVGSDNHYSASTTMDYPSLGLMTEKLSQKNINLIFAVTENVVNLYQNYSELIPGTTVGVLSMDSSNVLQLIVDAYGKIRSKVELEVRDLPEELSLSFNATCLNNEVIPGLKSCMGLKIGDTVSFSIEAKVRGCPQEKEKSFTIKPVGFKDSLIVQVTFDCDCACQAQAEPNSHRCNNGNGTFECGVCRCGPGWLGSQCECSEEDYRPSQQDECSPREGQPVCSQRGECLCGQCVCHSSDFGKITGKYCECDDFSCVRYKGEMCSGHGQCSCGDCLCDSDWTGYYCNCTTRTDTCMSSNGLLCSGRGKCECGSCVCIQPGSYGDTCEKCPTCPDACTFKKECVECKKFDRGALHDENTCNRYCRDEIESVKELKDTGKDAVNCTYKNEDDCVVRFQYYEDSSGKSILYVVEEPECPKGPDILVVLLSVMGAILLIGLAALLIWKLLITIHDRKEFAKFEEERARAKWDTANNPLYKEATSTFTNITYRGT
# Sequence (P08514 32-887 limits assumed): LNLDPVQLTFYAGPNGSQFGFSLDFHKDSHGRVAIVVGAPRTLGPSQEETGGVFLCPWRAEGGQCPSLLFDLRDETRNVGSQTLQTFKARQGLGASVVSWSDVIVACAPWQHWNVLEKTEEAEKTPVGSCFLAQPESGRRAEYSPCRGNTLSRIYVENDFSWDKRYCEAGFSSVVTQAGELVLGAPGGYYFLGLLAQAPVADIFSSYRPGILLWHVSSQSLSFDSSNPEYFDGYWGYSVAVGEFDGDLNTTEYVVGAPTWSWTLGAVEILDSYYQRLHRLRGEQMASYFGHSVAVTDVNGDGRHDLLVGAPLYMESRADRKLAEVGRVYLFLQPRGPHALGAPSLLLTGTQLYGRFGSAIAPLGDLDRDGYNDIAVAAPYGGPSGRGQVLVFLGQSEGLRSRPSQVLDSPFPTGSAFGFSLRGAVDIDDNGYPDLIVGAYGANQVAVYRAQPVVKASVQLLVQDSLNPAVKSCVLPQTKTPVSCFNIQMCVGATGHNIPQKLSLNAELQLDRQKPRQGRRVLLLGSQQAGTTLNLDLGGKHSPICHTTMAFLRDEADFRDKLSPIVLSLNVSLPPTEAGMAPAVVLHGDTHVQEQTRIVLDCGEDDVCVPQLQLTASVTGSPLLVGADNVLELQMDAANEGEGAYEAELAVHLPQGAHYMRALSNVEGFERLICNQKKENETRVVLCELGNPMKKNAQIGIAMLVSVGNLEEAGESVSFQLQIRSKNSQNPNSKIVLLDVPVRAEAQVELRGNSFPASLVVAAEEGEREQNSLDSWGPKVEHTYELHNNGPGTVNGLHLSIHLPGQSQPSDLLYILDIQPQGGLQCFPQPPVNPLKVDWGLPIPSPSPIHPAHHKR
# Sequence (P08514 891-1039 limits assumed): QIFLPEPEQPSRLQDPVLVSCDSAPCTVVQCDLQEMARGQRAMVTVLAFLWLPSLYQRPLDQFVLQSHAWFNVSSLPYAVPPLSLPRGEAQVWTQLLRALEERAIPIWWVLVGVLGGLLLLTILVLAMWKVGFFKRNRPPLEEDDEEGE
# Assay Details: Inhibition of platelet aggregation induced by 20 uM adenosine 5'-diphosphate (ADP) in human platelet rich plasma (h-PRP).
Could you mark each record Satisfied if its IC50 falls strictly under 600 nM, and Not satisfied if it equals or exceeds it?

• N=C(N)c1ccc2oc(C(=O)N3CCCC(C(=O)NC(CC(=O)O)c4ccccc4)C3)cc2c1 (stereo unspecified) = Satisfied
• N=C(N)c1ccc2oc(C(=O)N3CCC[C@@H]3C(=O)NC(CC(=O)O)c3ccccc3)cc2c1 (stereo partly specified) = Not satisfied
• N=C(N)c1ccc2oc(C(=O)NCCC(=O)NC(CC(=O)O)C(F)(F)F)cc2c1 (stereo unspecified) = Satisfied
• CCCCS(=O)(=O)N[C@@H](CNC(=O)CCNC(=O)c1cc2cc(C(=N)N)ccc2o1)C(=O)O = Satisfied
• CC(C)(NC(=O)c1cc2cc(C(=N)N)ccc2[nH]1)C(=O)NC(CC(=O)O)c1ccccc1 (stereo unspecified) = Not satisfied

A record lists N=C(N)c1ccc2oc(C(=O)NCCC(=O)NC(CC(=O)O)c3ccccc3)cc2c1 (stereo unspecified) . Is its IC50 below 600 nM?
Satisfied

In plain terms, does N=C(N)c1ccc2[nH]c(C(=O)Nc3cccc(C(=O)NC(CC(=O)O)c4ccccc4)c3)cc2c1 (stereo unspecified) come in under 600 nM for IC50?
Not satisfied

Regarding N=C(N)c1ccc2[nH]c(C(=O)N3CCC(C(=O)NC(CC(=O)O)c4ccccc4)CC3)cc2c1 (stereo unspecified) , kindly confirm whether its IC50 is beneath 600 nM.
Not satisfied

Record N=C(N)c1ccc2oc(C(=O)NCCC(=O)NC(CC(=O)O)c3cccnc3)cc2c1 (stereo unspecified) : is its IC50 strictly below 600 nM?
Satisfied

Please determine if C#CC(CC(=O)O)NC(=O)CCNC(=O)c1cc2cc(C(=N)N)ccc2o1 (stereo unspecified) is below 600 nM in terms of IC50.
Satisfied

Is it true that IC50 reported for N=C(N)c1ccc2[nH]c(C(=O)NCC(=O)NC(CC(=O)O)c3ccccc3)cc2c1 (stereo unspecified) is less than 600 nM?
Not satisfied

Problem: For the compound N=C(N)c1ccc2oc(C(=O)NCCC(=O)NC(CC(=O)O)c3ccc(F)c(F)c3)cc2c1 (stereo unspecified) , is IC50 under 600 nM?
Satisfied

Is IC50 of N=C(N)c1ccc2oc(C(=O)NCCC(=O)NC(CC(=O)O)c3cc(F)cc(F)c3)cc2c1 (stereo unspecified) strictly below 600 nM?
Satisfied

Regarding N=C(N)c1ccc2c(C(=O)NCCC(=O)NC(CC(=O)O)c3ccccc3)c[nH]c2c1 (stereo unspecified) , kindly confirm whether its IC50 is beneath 600 nM.
Not satisfied

Consider CCCCS(=O)(=O)NC(CNC(=O)CCNC(=O)c1[nH]nc2cc(C(=N)N)ccc12)C(=O)O (stereo unspecified) . Does its IC50 lie strictly below 600 nM?
Satisfied

Quick check: IC50 of N=C(N)c1ccc2cc(C(=O)NCCC(=O)NC(CC(=O)O)c3ccccc3)[nH]c2c1 (stereo unspecified) under 600 nM?
Not satisfied

Below 600 nM on IC50? Entry CN(CCC(=O)NC(CC(=O)O)c1ccccc1)C(=O)c1cc2cc(C(=N)N)ccc2[nH]1 (stereo unspecified)
Not satisfied

Just wondering, is IC50 of N=C(N)c1ccc2[nH]c(C(=O)NCCC(=O)NC(CC(=O)O)c3ccccc3)cc2c1 (stereo unspecified) below 600 nM?
Not satisfied

Take the compound N=C(N)c1ccc2[nH]c(C(=O)N3CCC[C@H]3C(=O)NC(CC(=O)O)c3ccccc3)cc2c1 (stereo partly specified) and say whether its IC50 is less than 600 nM.
Not satisfied

Item CC(CC(=O)NC(CC(=O)O)c1ccccc1)NC(=O)c1cc2cc(C(=N)N)ccc2[nH]1 (stereo unspecified) : IC50 beneath 600 nM, strictly?
Not satisfied

----------
# Tested Target: Integrin alpha-IIb/beta-3 (Homo sapiens, UniProt P08514+P05106)
# Assay Details: Inhibition of platelet aggregation induced by 20 uM adenosine 5'-diphosphate (ADP) in human platelet rich plasma (h-PRP).
Measurement Type: IC50 (µM)
Report as a plain number; the unit µM is understood.

Reference set (4 entries):
• N=C(N)c1ccc2[nH]c(C(=O)NC(CC(=O)NC(CC(=O)O)c3ccccc3)C(F)(F)F)cc2c1 (stereo not given) = 50
• N=C(N)c1ccc2oc(C(=O)NCCC(=O)NC(CC(=O)O)c3cc(F)ccc3F)cc2c1 (stereo not given) = 0.3
• CN(CCC(=O)NC(CC(=O)O)c1ccccc1)C(=O)c1cc2cc(C(=N)N)ccc2o1 (stereo not given) = 0.25
• COc1ccc(C(CC(=O)O)NC(=O)CCNC(=O)c2cc3cc(C(=N)N)ccc3o2)cc1OC (stereo not given) = 0.3

Okay, next one:
Lab note: need IC50 for CN(CC(=O)NC(CC(=O)O)c1ccccc1)C(=O)c1cc2cc(C(=N)N)ccc2[nH]1 (stereo not given) on Integrin alpha-IIb/beta-3 (Homo sapiens, UniProt P08514+P05106), anyone have it?
25
